# switch fluorescence ratio annotations
system: ATP; test: switch fluorescence ratio, 500 uM ATP over buffer (Cy3 cluster intensity, sum of 5 cycles each) (fold (ratio)); higher = stronger signal-on switching upon ATP binding; sequences stand for … in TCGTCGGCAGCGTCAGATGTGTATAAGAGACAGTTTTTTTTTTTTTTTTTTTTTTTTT…TC; conditions: aptamer strand: ATP DNA aptamer (quencher-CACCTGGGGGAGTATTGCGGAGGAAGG + anchor), 100 nM annealed; ATP concentration: 500 uM;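 also: ATP exposure 15 min at 22 °C before imaging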
// no unit string in output, number only

Record excerpt, results attached:
- GGCTGGGATT: 0.964
- TTTGGGTGAG: 0.993
- AAAGTTCCTA: 0.968
- TGGTATGTCA: 0.991
- CGTGTCTTGA: 1.03
- AGGAAATTGT: 1.01

Asked: Reported switch fluorescence ratio, sequence GGAACTGGAG : ____
Given back: 1.07

Asked: Reported switch fluorescence ratio, sequence TAGGGGGCAT : ____
Given back: 1.01

Asked: Reported switch fluorescence ratio, sequence CACTGGGGGC : ____
Given back: 1.02
